# System: luciferase-expressing P. berghei liver stage parasites in HepG2 cells
# Protocol Description: Inhibition of liver-stage development assay (ILSDA), Method 2 (WRAIR, 96-well)
# Format: cell-based, Plasmodium berghei
# Measurement Context: P. berghei liver stage, Method 2, dose response

Compound | Subject Of Test | Activity direction (Decrease / Inactive)
O=c1[nH]c(N2CCOCC2)nc2c1CCN(Cc1cc(Cl)ccc1F)CC2 [NCGC00440651] | luciferase-expressing P. berghei liver stage parasites in HepG2 cells | Decrease
CCCN1C(CC(C)C)=N[S+](=O)([O-])c2cc(NC(=O)C(C)C)ccc21 [NCGC00473220-01] | luciferase-expressing P. berghei liver stage parasites in HepG2 cells | Decrease
O=c1[nH]c(N2CCOCC2)nc2c1CCN(Cc1ccc(Cl)cc1F)CC2 [NCGC00440653] | luciferase-expressing P. berghei liver stage parasites in HepG2 cells | Decrease
O=c1[nH]c(N2CCOCC2)nc2c1CCN(Cc1ccc(Cl)cc1F)CC2 [NCGC00440653-01] | luciferase-expressing P. berghei liver stage parasites in HepG2 cells | Inactive
O=C(O)c1cccc(CN2CC(CNC(=O)c3ccccc3)C3(C2)CN(c2ccccc2)C3)c1 (stereo not drawn) [NCGC00415857-01] | luciferase-expressing P. berghei liver stage parasites in HepG2 cells | Decrease
COc1ccccc1Nc1cnc2ccc(-c3ccc(OC)c(OC)c3)nn12 [NCGC00412573-01] | luciferase-expressing P. berghei liver stage parasites in HepG2 cells | Inactive
c1ccc(OCC2CN(Cc3ccc4[nH]ccc4c3)CC23CN(c2ccccc2)C3)cc1 (stereo not drawn) [NCGC00415812-01] | luciferase-expressing P. berghei liver stage parasites in HepG2 cells | Inactive
CC(C)C1=N[S+](=O)([O-])c2cc(NC(=O)c3ccco3)ccc2N1c1ccccc1 [NCGC00473412-01] | luciferase-expressing P. berghei liver stage parasites in HepG2 cells | Inactive
COc1cc2c(cc1Oc1cccc(N(C)C)c1)NC(=O)C21CCN(c2cnccn2)CC1 [NCGC00416778-01] | luciferase-expressing P. berghei liver stage parasites in HepG2 cells | Decrease
CCCN1C(c2ccccc2)=NS(=O)(=O)c2cc(NC(=O)c3cccs3)ccc21 [NCGC00532332-01] | luciferase-expressing P. berghei liver stage parasites in HepG2 cells | Decrease
O=[S+]([O-])(c1cccs1)N1CCc2nc(C3CC3)nc(-c3ccc(Cl)cc3)c2CC1 [NCGC00476969-01] | luciferase-expressing P. berghei liver stage parasites in HepG2 cells | Inactive
COc1ccc(-n2nc(C)c([C@@H]3C=C[C@@H](NCc4ccc(F)cc4)C3)c2C)cc1 [NCGC00421412-01] | luciferase-expressing P. berghei liver stage parasites in HepG2 cells | Decrease
CCC(C)C1=N[S+](=O)([O-])c2cc(NC(=O)c3ccco3)ccc2N1c1ccccc1 (stereo not drawn) [NCGC00473608-01] | luciferase-expressing P. berghei liver stage parasites in HepG2 cells | Decrease
O=C(Nc1ccc2c(N3CCCCC3)ncnc2c1)c1cc(F)cc(F)c1 [NCGC00425525-01] | luciferase-expressing P. berghei liver stage parasites in HepG2 cells | Decrease
CC(C)c1ccc(CN2CC(CNc3cccnc3)C3(C2)CN(c2ccccc2)C3)cc1 (stereo not drawn) [NCGC00415809-01] | luciferase-expressing P. berghei liver stage parasites in HepG2 cells | Inactive
O=C(NCC1CN(C(=O)Cc2cccc(OC(F)(F)F)c2)CC12CN(c1ccccc1)C2)c1ccccc1 (stereo not drawn) [NCGC00415900-01] | luciferase-expressing P. berghei liver stage parasites in HepG2 cells | Inactive
Oc1ccc(CN2CC(CNc3ccccc3)C3(C2)CN(c2ccccc2)C3)cc1 (stereo not drawn) [NCGC00416032-01] | luciferase-expressing P. berghei liver stage parasites in HepG2 cells | Inactive
O=c1[nH]c(N2CCOCC2)nc2c1CCN(Cc1cc(Cl)ccc1F)CC2 [NCGC00440651-01] | luciferase-expressing P. berghei liver stage parasites in HepG2 cells | Inactive

Measured values drawn from paper PMC7822874 for this set.
